This collection of values is drawn from ChEMBL document CHEMBL2311493.

# measurement-target: Sodium- and chloride-dependent GABA transporter 1 (Mus musculus, UniProt P31648)
# assay-protocol: Inhibition of [3H]GABA uptake at mouse GAT1 expressed in HEK293 cells after 25 mins by scintillation counting analysis
# Format: cell-based
# assay-context: read-out: IC50
pIC50: −log10 of the molar value.
attribute-measured: pIC50

Observe how each entry below is paired with its result.
Inquiry: Lookup: pIC50 / Sodium- and chloride-dependent GABA transporter 1 (Mus musculus, UniProt P31648) / Cc1ccsc1C(=CCCN1CCC[C@@H](C(=O)O)C1)c1sccc1C
Reply text: 7.15

Inquiry: Give Sodium- and chloride-dependent GABA transporter 1 (Mus musculus, UniProt P31648) pIC50 for O=C(O)[C@@H]1CCCN(CCOCCc2ccccc2-c2ccccc2)C1
Reply text: 6.95

Inquiry: # returns recorded pIC50 (system: Sodium- and chloride-dependent GABA transporter 1 (Mus musculus, UniProt P31648)) for O=C(O)[C@@H]1CCCN(CCO/N=C(\Cc2ccccc2F)c2ccccc2F)C1
Reply text: 7.10

Inquiry: Query for Sodium- and chloride-dependent GABA transporter 1 (Mus musculus, UniProt P31648): what pIC50 does the record show for O=C(O)C1=CCCN(CCON=C(c2ccccc2)c2ccccc2)C1 ?
Reply text: 7.40

a = O=C(O)[C@@H]1CCCN(CCOCCC(c2ccccc2)c2ccccc2)C1
b = O=C(O)C1=CCCNC1
c = O=C(O)C1CCCN(CCC=C(c2ccccc2)c2ccccc2)C1 (configuration not stated)
Inquiry: # desc sort on pIC50 across 3 molecules Write the labels in rank order as requested.
Reply text: a, c, b

---

Test system UniProt:P31648, Ki listed for each of the molecules.
attribute-measured: Ki (nM)

a = O=C(O)C1CCCN(CCN/N=C/c2ccccc2-c2ccc(Cl)cc2)C1 (stereo unspecified)
b = O=C(O)C1CCCN(CCN/N=C/c2ccccc2-c2ccc(F)cc2Cl)C1 (stereo unspecified)
c = O=C(O)C1CCCN(CCN/N=C/c2ccccc2-c2ccc(F)cc2)C1 (stereo unspecified)
d = O=C(O)C1CCCN(CCN/N=C/c2ccccc2-c2ccccc2)C1 (stereo unspecified)
Inquiry: # rank above entries by Ki (max first, min last) Response field: labels, in requested order.
Reply text: d, c, a, b
(d: 652 nM, c: 284 nM, a: 173 nM, b: 14.6 nM)

1 = O=C(O)C1CCCN(CCN/N=C/c2ccccc2-c2ccc(Cl)cc2Cl)C1 (stereo unspecified)
2 = O=C(O)C1CCCN(CCC/C=C/c2ccccc2-c2ccccc2Cl)C1 (stereo unspecified)
Inquiry: // pick min by Ki: 1 , 2 # respond with the chosen item's label
Reply text: 1
(1: 8.05 nM, 2: 834 nM)

---

# measurement-target: Sodium- and chloride-dependent GABA transporter 1 (Mus musculus)
# assay-protocol: Binding affinity to mouse GAT1 expressed in HEK293 cells membranes assessed as remaining [2H10]NO711 binding level at 10 uM using LC-ESI-MS/MS analysis by [2H10]NO711 binding inhibition assay
# Format: cell membranes
attribute-measured: Activity (%)

Past entries and their recorded results:
Inquiry: Dear colleague, I am looking for the recorded Activity of the following molecule: O=Cc1cc(F)ccc1-c1ccccc1
Reply text: 85

Inquiry: Tell me the measured Activity of O=C(O)C1CCCN(CCN/N=C/c2ccccc2-c2cccs2)C1 (stereo not given) , please.
Reply text: 8.2

Inquiry: Reported Activity, molecule O=Cc1ccccc1-c1ccccc1Cl : ____
Reply text: 79

Inquiry: Quick check: Activity of COc1cccc(-c2ccccc2C=O)c1 ?
Reply text: 91

Inquiry: Field request: Activity | item: O=Cc1cc(F)ccc1-c1ccc(Cl)cc1
Reply text: 81

I = O=Cc1ccccc1-c1ccc(F)cc1F
II = O=C(O)C1CCCN(CCN/N=C/c2ccccc2-c2cccc(F)c2)C1 (stereo not given)
III = O=Cc1ccccc1-c1c(F)cc(F)cc1F
IV = Cc1ccc(-c2ccccc2/C=N/NCCN2CCCC(C(=O)O)C2)cc1 (stereo not given)
Inquiry: Rank the items in ascending order with respect to Activity. Returns: the labels arranged in the requested order.
Reply text: IV, II, III, I

I = O=Cc1ccccc1-c1ccc(Cl)cc1F
II = O=Cc1ccccc1-c1c(F)cccc1F
Inquiry: Which record shows the lower Activity: the first, I , or the second, II ? Respond using the label that marks the chosen record.
Reply text: II

---

# measurement-target: Sodium- and chloride-dependent GABA transporter 1 (Mus musculus, UniProt P31648)
# assay-protocol: Inhibition of [3H]GABA uptake at mouse GAT1 expressed in HEK293 cells after 25 mins by scintillation counting analysis
# Format: cell-based
# assay-context: read-out: pIC50 (converted)
attribute-measured: IC50 (nM)

Take a look at these entries with their results.
Inquiry: Please tell me: IC50 of O=C(O)C1CCCN(CCN/N=C/c2ccccc2-c2ccccc2Cl)C1 (stereo not given) , system Sodium- and chloride-dependent GABA transporter 1 (Mus musculus, UniProt P31648)?
Reply text: 479

Inquiry: Notebook: pull reported IC50 for Sodium- and chloride-dependent GABA transporter 1 (Mus musculus, UniProt P31648), entry O=C(O)C1CCCN(CCN/N=C/c2ccccc2-c2ccc(F)cc2Cl)C1 (stereo not given)
Reply text: 292

1 = O=C(O)C1CCCN(CCN/N=C/c2ccccc2-c2c(F)cccc2F)C1 (stereo not given)
2 = COc1cccc(F)c1-c1ccccc1/C=N/NCCN1CCCC(C(=O)O)C1 (stereo not given)
3 = O=C(O)C1CCCN(CCN/N=C/c2ccccc2-c2ccc(Cl)cc2Cl)C1 (stereo not given)
4 = O=C(O)C1CCCN(CCC/C=C/c2ccccc2-c2ccc(F)cc2Cl)C1 (stereo not given)
5 = O=C(O)C1CCCN(CCN/N=C/c2ccccc2-c2ccc(Cl)cc2F)C1 (stereo not given)
Inquiry: Task field, ranking: reported IC50, descending order. List labels; respect the requested ordering.
Reply text: 4, 2, 1, 5, 3

A = O=C(O)C1CCCN(CCN/N=C/c2ccccc2-c2ccc(Cl)cc2)C1 (stereo not given)
B = Cc1ccccc1-c1ccccc1/C=N/NCCN1CCCC(C(=O)O)C1 (stereo not given)
Inquiry: Please choose the item with the lower IC50 value from this pair: A and B Respond with the label that goes with your answer.
Reply text: A

---

# measurement-target: Sodium- and chloride-dependent GABA transporter 1 (Mus musculus, UniProt P31648)
# assay-protocol: Binding affinity to mouse GAT1 expressed in HEK293 cells membranes using LC-ESI-MS/MS analysis by [2H10]NO711 binding inhibition assay
# Assay type: cell membranes
attribute-measured: pIC50
Just the number, please; pIC50 means minus log10 of the concentration in mol/L.

Inquiry: Dear colleague, I am looking for the recorded pIC50 of the following compound: O=Cc1ccccc1-c1c(F)cc(F)cc1F
Reply text: 5.00

---

# measurement-target: Sodium- and chloride-dependent GABA transporter 1 (Mus musculus)
# assay-protocol: Binding affinity to mouse GAT1 expressed in HEK293 cells membranes assessed as remaining [2H10]NO711 binding level at 10 uM using LC-ESI-MS/MS analysis by [2H10]NO711 binding inhibition assay
# Assay type: cell membranes
attribute-measured: Activity (%)

Worked cases, answers included:
Inquiry: Return reported Activity; argument: O=Cc1ccccc1-c1cc(F)ccc1F
Reply text: 81

Inquiry: Give the measured Activity of O=Cc1ccccc1-c1ccc(F)cc1 .
Reply text: 82

Inquiry: For the compound shown here, COc1cccc(F)c1-c1ccccc1C=O , give the reported Activity.
Reply text: 88

Inquiry: Item under review: O=Cc1c(F)cccc1-c1ccccc1 . Reported Activity?
Reply text: 85

Inquiry: What Activity value was documented for this compound, O=Cc1ccccc1-c1cccc(-c2ccccc2)c1 ?
Reply text: 81

A = O=Cc1ccccc1-c1ccc(F)cc1Cl
B = O=Cc1cc(F)ccc1-c1ccccc1F
Inquiry: Which has the smaller recorded Activity, A or B ? Use the label to indicate which entry you chose.
Reply text: B

---

# measurement-target: UniProt P31648
# assay-protocol: Inhibition of [3H]GABA uptake at mouse GAT1 expressed in HEK293 cells after 25 mins by scintillation counting analysis
# Type: cell-based
# assay-context: read-out: pIC50 (converted)
attribute-measured: IC50 (nM)

Inquiry: Field: IC50 (UniProt P31648). Entry: O=C(O)C1CCCN(CCN/N=C/c2ccccc2-c2cccc(F)c2F)C1 (configuration not stated)
Reply text: 1500

Inquiry: Checklist item: IC50 tested on UniProt P31648, entry O=C(O)C1CCCN(CCN/N=C/c2cc(F)ccc2-c2ccccc2F)C1 (configuration not stated) , value?
Reply text: 1730

Inquiry: Any idea what IC50 came out for O=C(O)C1CCCN(CCC/C=C/c2ccccc2-c2ccccc2F)C1 (configuration not stated) on UniProt P31648?
Reply text: 3330

Inquiry: Identify the measured IC50 of O=C(O)C1CCCN(CCC/C=C/c2ccccc2-c2ccc(F)cc2F)C1 (configuration not stated) for UniProt P31648.
Reply text: 2840

A = Cc1ccc(-c2ccccc2/C=N/NCCN2CCCC(C(=O)O)C2)c(C)c1 (configuration not stated)
B = O=C(O)C1CCCN(CCN/N=C/c2ccccc2-c2ccc(F)cc2)C1 (configuration not stated)
Inquiry: Consider A and B . Which of these has its IC50 at a higher number? Record your answer as the label of the chosen record.
Reply text: B
